Source of measurements: ChEMBL document CHEMBL1125455

Biological target: Neutrophil elastase (Homo sapiens)
Sequence (P08246 whole entry): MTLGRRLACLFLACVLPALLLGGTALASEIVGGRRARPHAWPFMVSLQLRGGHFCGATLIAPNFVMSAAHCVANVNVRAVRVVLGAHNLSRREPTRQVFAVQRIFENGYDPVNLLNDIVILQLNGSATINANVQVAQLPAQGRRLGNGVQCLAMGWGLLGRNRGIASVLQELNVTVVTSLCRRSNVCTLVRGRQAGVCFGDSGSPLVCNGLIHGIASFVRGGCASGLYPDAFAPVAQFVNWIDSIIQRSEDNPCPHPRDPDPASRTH
Experiment: In vitro inhibition of human leukocyte elastase.
reportedEndpoint: IC50 (µM)
Report the value in µM with no unit label.

Task item: Consider the compound `Cc1ccc2c(c1)C(=O)c1ccccc1C2=O` and give its measured IC50.
Reply: 39

Task item: Now try `CCCCc1ccc2c(c1O)C(=O)c1c(O)cccc1C2=O` .
Reply: 6.4

Task item: Can you check `Cc1ccc2c(c1O)C(=O)c1c(O)cccc1C2=O` next?
Reply: 9.9

With those in mind, consider the next compound.
Task item: Name the recorded IC50 for `CCCc1ccc2c(c1O)C(=O)c1c(OC)cccc1C2=O` .
Reply: 8.7
